Assay method text: gst-4 reporter inhibition in live C. elegans – whole organism, uHTS, GFP/RFP fluorescence ratio, strain VP596, SKN-1 inhibitor project, primary screen (AID 624304)
Condition: C. elegans VP596 Pgst-4::GFP/RFP ratio, acrylamide-induced, 24 h; at 21.8 µM; hits give high values
Hit rate of the full screen: of about 360,000 compounds, about 1,800 (0.5%) were called active. This is one part of a sample in which actives are shown more often than they occur.
Measurement name: inhibition (%)

Compound | Measurement name | Numeric readout
COCCNc1nc(N)c([N+](=O)[O-])c(N2CCCCCC2)n1 | inhibition | 23.7
CCC(C(=O)NCc1ccccc1)n1c(Cc2cc(F)cc(F)c2)nc2ccccc21 (stereo unspecified) | inhibition | -5.9
Cc1ccc(-c2nc3ccc(Br)cn3c2Cc2ccccc2C(F)(F)F)cc1 | inhibition | 35.2
CCCNC(=O)C1(C)CCN1C(=O)Cc1ccc(-c2ccccc2)cc1 (stereo unspecified) | inhibition | -5.8
C#Cc1ccc(NC(=O)C2(C)CCN2C(=O)Cc2ccc(-c3ccccc3)cc2)cc1 (stereo unspecified) | inhibition | 8.15
Cc1oc(-c2ccccc2F)nc1CS(=O)CC(=O)NCCN1CCCCC1C (stereo unspecified) | inhibition | 5.11
Nc1nc(NCCCN2CCOCC2)nc(Nc2ccccc2)c1[N+](=O)[O-] | inhibition | 5.52
COC(=O)c1ccc2nc(-c3cccc(Br)c3)c(Cc3ccccc3C(F)(F)F)n2c1 | inhibition | -9.35
CCCc1ccc(S(=O)(=O)N2CCN(C(=O)c3cc(C)on3)CC2)cc1 | inhibition | 12.9
Nc1cc(C(F)(F)F)ccc1N1CCOCC1 | inhibition | 2.47
CCCC(NCC(=O)Nc1ccccc1C(=O)NC1CC1)c1ccccc1 (stereo unspecified) | inhibition | 11.1

---

Assay method text: gst-4 reporter inhibition in live C. elegans – whole organism, uHTS, GFP/RFP fluorescence ratio, strain VP596, SKN-1 inhibitor project, primary screen (AID 624304)
Condition: C. elegans VP596 Pgst-4::GFP/RFP ratio, acrylamide-induced, 24 h; at 21.8 µM
In all, about 360,000 compounds went through this assay and about 1,800 (0.5%) were called active.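 The calls were made as follows: active = interference check ratio from 0.5 to 1.5 plus GFP to RFP signal ratio inhibition reaching or exceeding a fixed threshold (cut at about 30% in these data, passing the limit was not always enough); inactive = the rest.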 This excerpt belongs to a sample that is enriched for actives.
Outcome codes: T = active, F = inactive

Compound | Group label
COc1ccc(-c2nc(CS(=O)CC(=O)NCc3ccccn3)c(C)o2)cc1 (stereo unspecified) | T
COc1cccc(C2SCC(=O)N2c2cccc(C)c2)c1OC (stereo unspecified) | F
CSCCNCc1cn(-c2ccc(F)cc2F)nc1-c1ccccc1C | F
CCOc1ccc(CNC(=O)C2CC(=O)N(C3CCCC3)C2)cc1OC (stereo unspecified) | F
FC(F)(F)c1ccnc(Oc2ccc(C3=NCCS3)cc2)c1 | T
COc1ccc(-c2nc(CS(=O)CC(=O)NCc3cccnc3)c(C)o2)cc1OC (stereo unspecified) | F

---

Assay method text: gst-4 reporter inhibition in live C. elegans – whole organism, uHTS, GFP/RFP fluorescence ratio, strain VP596, SKN-1 inhibitor project, primary screen (AID 624304)
Condition: C. elegans VP596 Pgst-4::GFP/RFP ratio, acrylamide-induced, 24 h; at 21.8 µM; hits give high values
Hit rate of the full screen: of about 360,000 compounds, about 1,800 (0.5%) were called active. Shown is part of a subset that was picked to be rich in actives.
# inhibition annotations
Measurement name: inhibition (%)

Compound | Numeric readout
O=C(CN1C2CCC1CC(NC(=O)C1CC1)C2)NCc1ccccc1 (stereo not drawn) | 35.8
CC(=O)NC1CC2CCCC(C1)N2CC(=O)Nc1ccccc1 (stereo not drawn) | -18.6
O=C(NCc1ccccc1)C1CCN(C(=O)Cc2ccccc2)CC1 | 9.03
CC(=O)Nc1ccc(NC(=O)CCN2C(=O)C3CC=CCC3C2=O)cc1 (stereo not drawn) | -12.5
CC(=O)c1ccc(N2CCN(C(=O)CCNC(=O)Cn3ccc4ccccc4c3=O)CC2)cc1 | -6.32
O=S(=O)(c1ccc(Sc2nnc3ccccn23)nc1)N1CCOCC1 | 10.2
CCn1c(=S)[nH]c2cc(S(=O)(=O)N3CCOCC3)ccc21 | -5.66
CCn1nccc1C(=O)Nc1ccc(Cl)c(Cl)c1 | 44.5
O=C(Nc1ccc(-n2cccn2)cc1)C1CCN(Cc2ccsc2)CC1 | -1.22
Fc1ccc(-c2csc(-c3ccc(C4SCCS4)cc3)n2)cc1F | -2.79
CCn1c(SCC(=O)Nc2nc(C)cs2)nnc1C(C)NC(=O)c1ccccc1 (stereo not drawn) | -5.72
CC(C)(C)C(=O)CSc1nc2ccccc2o1 | -6.68
CNS(=O)(=O)c1ccc2c(c1)[nH]c(=S)n2C | 45.2
CCCCCCCC(=O)OC(CN1CCCCCC1)CN1CCCC1=O (stereo not drawn) | 0.0276
COC(=O)c1ccc(COC(=O)c2c(C)nn(Cc3ccccc3Cl)c2Cl)o1 | -0.292
CCN(CC)C(=O)CSc1nc2ccccc2o1 | 0.512
Cc1c(C(=O)NCCN2C(=O)S/C(=C\c3cccs3)C2=O)cccc1[N+](=O)[O-] | 9.81
Cc1nonc1C1CCCN1Cc1nc(-c2ccc(F)cc2F)oc1C (stereo not drawn) | 10
Cc1nnsc1C(=O)N/N=C/c1cccc(C(F)(F)F)c1 | 6.82
O=C(CCCN1C(=O)/C(=C/c2cccs2)SC1=S)Nc1ccc(O)cc1 | 38.3
CCCCOc1ccc(N(CC(=O)NC(C)C)C(=O)CCC(=O)Nc2ccccn2)cc1 | -1.05
COC(=O)c1[nH]c2ccc(Br)cc2c1NC(=O)Oc1ccccc1 | 6.84
O=C(N/N=C\c1cccc(Br)c1)c1ccccc1-n1cccc1 | 49.3

---

Assay method text: gst-4 reporter inhibition in live C. elegans – whole organism, uHTS, GFP/RFP fluorescence ratio, strain VP596, SKN-1 inhibitor project, primary screen (AID 624304)
Condition: C. elegans VP596 Pgst-4::GFP/RFP ratio, acrylamide-induced, 24 h; at 21.8 µM; hits give high values
Hit rate of the full screen: of about 360,000 compounds, about 1,800 (0.5%) were called active. For the sample, actives were picked, then their nearest neighbours and some compounds at random.

Molecule | Output unit | inhibition
Cc1nn(CC#N)c(=O)n1N(C)c1ncc(C(F)(F)F)cc1Cl | % | -3.68
COc1cc(C(=O)Nc2nccs2)cc(OC)c1OC | % | 41.9
COc1cc2ccccc2cc1C(=O)Nc1ccncc1 | % | 36.2
CCC(=O)Nc1c(C)n[nH]c1C | % | -5.42
COc1ccc(NC(=O)C2Cc3c(-c4cccc(NC(C)=O)c4)ccnc3O2)cc1OC (stereo not given) | % | 7.14
COc1ccc2c(c1)c1ncn(Cc3ccccn3)c(=O)c1n2C | % | -9.72
CC(C)c1nnc(NC(=O)C2CC(=O)N(CCc3ccc(F)cc3)C2)s1 (stereo not given) | % | -6.45
CC1(C)NC(=O)N(CCCCSc2ccc(Cl)cc2)C1=O | % | 4.13
CC1Cc2ccccc2N1S(=O)(=O)c1cccc(C(=O)OCC(=O)N2CCOCC2)c1 (stereo not given) | % | 17.4
Cc1ccc(NC(=O)NC(=O)CSc2nnc(-c3ccc(OC(F)F)cc3)n2N)c(C)c1 | % | 1.8
COc1ccc(Cc2nnc(NC(=O)c3cc(OC)c(OC)c(OC)c3)s2)cc1OC | % | -13.7
Cc1ccc(F)cc1NC(=O)CSCc1c(C)noc1C | % | -5.42
CCS(=O)(=O)c1ccc2oc(SCC(=O)N3c4ccccc4CC3C)nc2c1 (stereo not given) | % | -0.339
CC1Cc2ccccc2N1C(=O)CSc1nnc(C2CC2)n1C (stereo not given) | % | 8.36
CN(C)/C=N/c1cc(=O)n(C)c(=O)n1CC1CC1 | % | 8.63
CCO[C@@H]1OC(C(=O)NCc2nc3ccccc3[nH]2)=C[C@H](C2CCCCC2)[C@H]1CCCO | % | 7.19
Cc1ccc(Sc2cc(N3CCOCC3)nc(-c3ccccc3)n2)cc1 | % | 7.71
Cc1nn(-c2ncc(C(F)(F)F)cc2Cl)c(=O)n1-c1ccccc1 | % | 35.6
CC(O)c1nc2c(c(=O)n(C)c(=O)n2C)n1C (stereo not given) | % | 1.19
O=S(=O)(Cc1cc(Cl)nc(-c2cccnc2)n1)c1ccccc1 | % | -15.6
Cc1ccc(F)cc1NC(=O)Cc1nn(C)c(=O)c2ccccc12 | % | 35.7
CCOc1cc(CO)ccc1OCC(=O)N1CCCCC1 | % | 7.04
O=S(=O)(Cc1cc(Sc2ccccc2)nc(-c2ccccc2)n1)c1ccccc1 | % | 44.9
Fc1ccc(COc2ccc(-c3nnco3)cc2)cc1 | % | 77.7
Cc1cc2c(=O)n(CC(=O)NCC(=O)Nc3ccc(C(C)C)cc3)cnc2s1 | % | -0.0427
CC(C)(CNCC(O)c1ccccc1)N1CCOCC1 (stereo not given) | % | -7.82
CC1CN/C(=C\C(=O)c2ccc(Br)cc2)C(=O)N1 (stereo not given) | % | 15.8
CC1Cc2ccccc2N1C(=O)CSc1nc2ccccc2o1 (stereo not given) | % | 30.1
FC(F)(F)c1ccc(-c2cccc3c2C2CC3CCN2Cc2ccccc2)cc1 (stereo not given) | % | 7.81
C=CCC1(C(=O)N(C)Cc2ccccc2)CCN(C(=O)OC(C)(C)C)CC1 | % | 4.4
CCc1ccc(-c2nc(SCC(=O)NC3CCCC3)n[nH]2)cc1 | % | 3.3
CC(=O)c1ccccc1OCc1ccc(C(=O)c2ccccc2)cc1 | % | 12.8
COc1ccccc1N1CCN(CC(=O)Nc2ccnn2C2CCCC2)CC1 | % | -9.67
Cc1cc(C(C)(C)C)oc1C(=O)N(CC(=O)NC1CCCC1)Cc1ccc(Cl)cc1 | % | 6.57
Cc1nc2ccccn2c1C(=O)NN=C1CCN(C)CC1 | % | 8.18
Cc1cccc(CN2CCN(Cc3cnn(-c4ccccc4F)c3)CC2CCO)n1 (stereo not given) | % | -14.6
CCOc1ccccc1NC(=O)c1cc(S(=O)(=O)N2CCC3(CC2)OCCO3)ccc1F | % | 3.17
Cc1nn(CC2CC2)c(=O)n1N(C)c1ncc(C(F)(F)F)cc1Cl | % | 3.57
CCOC(=O)[C@]12CCCC=C1N(CCC1=CCCCC1)C(=O)[C@H](CC(=O)N1CCOCC1)C2 | % | 6.43
O=C(NCCc1nnc2ccc(SCC(=O)N3CCOCC3)nn12)c1ccccc1 | % | 9.19
CC(=O)Oc1ccc(C(=O)Nc2nccs2)cc1 | % | 3.06
O=C1CCC([N+](=O)[O-])C(c2ccccc2Br)N1 (stereo not given) | % | 9.01
COC[C@@H]1NS(=O)(=O)c2ccc(Br)cc2O[C@H]1c1ccccc1 | % | 14.6
COc1cccc(OC)c1C(=O)Nc1ccc(Cc2ccncc2)cc1 | % | -3.1
CCCCn1ccnc1C(=O)c1cccc(S(=O)(=O)N2c3ccccc3CC2C)c1 (stereo not given) | % | 41.7
